Tested on: Osteoclast
Assay: In vitro bone resorption in isolated rabbit osteoclasts
Format: functional, cell-based
Settings: Oryctolagus cuniculus
MEASURED METRIC: IC50 (nM)
// units = nM; emit number, no label

Lab book: IC50 of N#CCNC(=O)C1(NC(=O)c2ccc(-c3ccc(S(=O)(=O)N4CCNCC4)cc3)cc2)CCCCC1 noted as 20

Lab book: IC50 of N#CCNC(=O)C1(NC(=O)c2ccc(-c3csc(N4CCC(N5CCOCC5)CC4)n3)cc2)CCCCC1 noted as 3

Lab book: IC50 of CC(C)N(C)C1CCN(c2nc(-c3ccc(C(=O)NC4(C(=O)NCC#N)CCCCC4)cc3)cs2)CC1 noted as 11

Lab book: IC50 of N#CCNC(=O)C1(NC(=O)c2ccc(-c3csc(N4CCN(C5CCOCC5)CC4)n3)cc2)CCCCC1 noted as 8

Lab book: IC50 of CN1CCN(c2nc(-c3ccc(C(=O)NC4(C(=O)NCC#N)CCCCC4)cc3)cs2)CC1 noted as 5

Lab book: IC50 of CN1CCN(Cc2nc(-c3ccc(C(=O)NC4(C(=O)NCC#N)CCCCC4)cc3)cs2)CC1 noted as 60

Lab book: IC50 of CC(C)(C)N1CCN(c2ccc(-c3ccc(C(=O)NC4(C(=O)NCC#N)CCCCC4)cc3)cc2)CC1 noted as 13

Lab book: IC50 of COCCN1CCC(Oc2ccc(-c3ccc(C(=O)NC4(C(=O)NCC#N)CCCCC4)cc3)cc2)CC1 noted as 21

Lab book: IC50 of N#CCNC(=O)C1(NC(=O)c2ccc(-c3ccc(N4CCNCC4)cc3)cc2)CCCCC1 noted as 77
